# targetUnderTest: CCR5 (UniProt P51681)
# assayOverview: cell-based or functional assay
assayEndpoint: log10 anti-HIV potency (IC50, nM) by cell fusion assay (log10 of the value in nM)
Heads up: the numbers are on a log10 scale; they represent anti-HIV potency (IC50, nM) by cell fusion assay in nM.

# lookup: log10 anti-HIV potency (IC50, nM) by cell fusion assay of RANTES derivative: signature sequence SEQ ID NO: 66 fused to positions 10-68 of native RANTES (SEQ ID NO: 1) (ligand) QGPPLMSVQSCCFAYIARPLPRAHIKEYFYTSGKCSNPAVVFVTRKNRQVCANPEKKWVREYINSLEMS
-1.15

Quick check: log10 anti-HIV potency (IC50, nM) by cell fusion assay of RANTES derivative: signature sequence SEQ ID NO: 13 fused to positions 10-68 of native RANTES (SEQ ID NO: 1) (ligand) QGPPLMWRGSCCFAYIARPLPRAHIKEYFYTSGKCSNPAVVFVTRKNRQVCANPEKKWVREYINSLEMS ?
-1.15

State the recorded log10 anti-HIV potency (IC50, nM) by cell fusion assay for this entry: RANTES derivative: signature sequence SEQ ID NO: 29 fused to positions 10-68 of native RANTES (SEQ ID NO: 1) (ligand) QGPPLGSMGPCCFAYIARPLPRAHIKEYFYTSGKCSNPAVVFVTRKNRQVCANPEKKWVREYINSLEMS
-0.41

Reported log10 anti-HIV potency (IC50, nM) by cell fusion assay for RANTES derivative: signature sequence SEQ ID NO: 40 fused to positions 10-68 of native RANTES (SEQ ID NO: 1) (ligand) QGPPMSWSQSCCFAYIARPLPRAHIKEYFYTSGKCSNPAVVFVTRKNRQVCANPEKKWVREYINSLEMS : what is it?
-0.96

Name the reported log10 anti-HIV potency (IC50, nM) by cell fusion assay value associated with the binder RANTES derivative: signature sequence SEQ ID NO: 48 fused to positions 10-68 of native RANTES (SEQ ID NO: 1) (ligand) QGPLSSQSQVCCFAYIARPLPRAHIKEYFYTSGKCSNPAVVFVTRKNRQVCANPEKKWVREYINSLEMS
-0.19

Suppose we examine the binder RANTES derivative: signature sequence SEQ ID NO: 6 fused to positions 10-68 of native RANTES (SEQ ID NO: 1) (ligand) QGPPLMWLQTCCFAYIARPLPRAHIKEYFYTSGKCSNPAVVFVTRKNRQVCANPEKKWVREYINSLEMS ; what log10 anti-HIV potency (IC50, nM) by cell fusion assay value has been reported?
-1.70

All values here come from patent US20090317363A1.
